Values compiled from the supplement of paper PMC6555819.

system: LXRb:RXRa (NR concentration 270 nM, RXRa partner concentration 90 nM); assay: PBM binding z-score (relative to random genomic background probes); higher = stronger binding; sequences stand for … in GC…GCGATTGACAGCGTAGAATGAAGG
Outcome label depends on PBM binding z-score relative to 2: at/above gives 1.0, below gives 0.0.

Confirm if PBM binding z-score reported for the sequence "CCTACTGGGCCACGAAAGGTCATTGACTCAGTGA" is 2 or above.
1.0

How about this sequence: "ACTATTAGTTGAGACGAGAGCAACCGATAGGTTG"
0.0

Now this one: "CCGACTGGGGCAGAAAGGTGACCATACCATCCGG"
0.0

What do you have for "CGTCCAAGGTCATAGGAGGTCAGTCAAGACAGAT" ?
1.0

Now give it for "ATCTCAAGGTAAAGATAGTTCAGTGAATGCAAAT" too.
0.0

Next:
Could you please find out whether "CGAACTAGGTCAAGGAGAGTGAATCTCCGCACGC" has PBM binding z-score that meets 2 or exceeds it?
0.0
